Molecular target: CYP1B1 (Homo sapiens)
Sequence (Q16678 whole entry): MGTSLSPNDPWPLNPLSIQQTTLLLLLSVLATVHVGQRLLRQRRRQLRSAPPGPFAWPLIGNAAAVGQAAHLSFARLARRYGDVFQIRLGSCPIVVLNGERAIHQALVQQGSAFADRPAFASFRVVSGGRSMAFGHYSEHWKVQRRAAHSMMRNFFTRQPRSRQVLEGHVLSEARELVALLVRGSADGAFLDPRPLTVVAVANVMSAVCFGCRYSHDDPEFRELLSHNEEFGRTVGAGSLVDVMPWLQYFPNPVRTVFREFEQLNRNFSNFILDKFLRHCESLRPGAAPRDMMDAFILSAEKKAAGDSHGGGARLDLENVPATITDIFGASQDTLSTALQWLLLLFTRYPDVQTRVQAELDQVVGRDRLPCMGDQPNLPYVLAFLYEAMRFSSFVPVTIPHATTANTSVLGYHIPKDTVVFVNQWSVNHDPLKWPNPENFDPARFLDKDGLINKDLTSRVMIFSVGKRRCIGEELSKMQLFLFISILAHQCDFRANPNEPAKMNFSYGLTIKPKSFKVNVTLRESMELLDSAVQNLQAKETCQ
Test: Inhibition of recombinant human CYP1B1 at 3 uM incubated for 45 mins using 7-ethyl-O-resorufin substrate in presence of NADPH regenerating system by fluorescence based ethoxyresorufin-O-deethylase assay
Settings: recombinant human CYP1B1, probe 7-ethyl-O-resorufin (7-ethoxyresorufin)
I'd be grateful if you could share measured inhibition at 0.75 h, 3 µM for these entries.
Kindly provide the numeric value in % only, without the unit symbol.

[in] Lookup: inhibition at 0.75 h, 3 µM / CYP1B1 (Homo sapiens) / C[C@]12CC[C@@H]3c4cc(-c5cccc(F)c5)c(O)cc4CC[C@H]3[C@@H]1CCC2=O
[out] 101

[in] Lookup: inhibition at 0.75 h, 3 µM / CYP1B1 (Homo sapiens) / C[C@]12CC[C@@H]3c4ccc(SCc5cccnc5)cc4CC[C@H]3[C@@H]1CCC2=O
[out] 87

[in] Lookup: inhibition at 0.75 h, 3 µM / CYP1B1 (Homo sapiens) / C[C@]12CC[C@@H]3c4cc(-c5ccc(F)cc5)c(O)cc4CC[C@H]3[C@@H]1CC[C@@H]2O
[out] 103

[in] Lookup: inhibition at 0.75 h, 3 µM / CYP1B1 (Homo sapiens) / C[C@]12CC[C@@H]3c4cc(-c5cccc(F)c5)c(O)cc4CC[C@H]3[C@@H]1CC[C@@H]2O
[out] 101

[in] Lookup: inhibition at 0.75 h, 3 µM / CYP1B1 (Homo sapiens) / C[C@]12CC[C@@H]3c4cc(-c5cccnc5)c(O)cc4CC[C@H]3[C@@H]1CC[C@@H]2O
[out] 100

[in] Lookup: inhibition at 0.75 h, 3 µM / CYP1B1 (Homo sapiens) / C[C@]12CC[C@@H]3c4cc(-c5cccc(Cl)c5)c(O)cc4CC[C@H]3[C@@H]1CCC2=O
[out] 100

[in] Lookup: inhibition at 0.75 h, 3 µM / CYP1B1 (Homo sapiens) / COc1ccc(-c2cc3c(cc2OC)CC[C@@H]2[C@@H]3CC[C@]3(C)C(=O)CC[C@@H]23)cc1
[out] 79

[in] Lookup: inhibition at 0.75 h, 3 µM / CYP1B1 (Homo sapiens) / C[C@]12CC[C@@H]3c4cc(-c5cccc(N)c5)c(O)cc4CC[C@H]3[C@@H]1CCC2=O
[out] 55
